- targetSystem: T1, human DLL3 (immobilized human DLL3 or h293-hDLL3 cells) (human, UniProt Q9NYJ7 27-492, limits assumed)
- T1 construct: the sentence says 'immobilized human DLL3 or h293-hDLL3 cells'
- T1 sequence: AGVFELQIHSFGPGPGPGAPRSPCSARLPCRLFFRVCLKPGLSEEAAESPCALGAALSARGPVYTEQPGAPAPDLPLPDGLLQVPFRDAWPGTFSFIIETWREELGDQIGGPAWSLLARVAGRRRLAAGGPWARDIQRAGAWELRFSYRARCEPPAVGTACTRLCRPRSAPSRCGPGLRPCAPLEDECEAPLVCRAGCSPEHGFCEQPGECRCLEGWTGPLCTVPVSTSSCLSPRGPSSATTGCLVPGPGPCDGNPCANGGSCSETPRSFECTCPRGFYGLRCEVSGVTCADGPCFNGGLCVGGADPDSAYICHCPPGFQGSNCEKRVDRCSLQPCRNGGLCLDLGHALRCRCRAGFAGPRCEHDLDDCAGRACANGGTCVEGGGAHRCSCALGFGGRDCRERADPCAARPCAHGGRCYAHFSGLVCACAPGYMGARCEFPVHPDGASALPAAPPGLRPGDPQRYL
- experimentalDetails: hybridoma screening on immobilized human DLL3 or on h293-hDLL3 cells
endpointLabel: binding result

| binder | endpointLabel | result |
| --- | --- | --- |
| SC16.61 (antibody, V domains shown, murine mAb; variable regions only) VH: EVLLQRSGPDLVKPGASVTIPCKASGYTFTDYNMDWVKQSHGKSLEWIGNINTYNGGTIYNQKFKGKATLTVDKPSSTAYMELRSLTSEDTAVYYCARRLRYGGHYFDYWGQGTALTVSS VL: DIVMTQSTSSLAMSVGQKVTMSCKSSQSLLNSSNQKNYLAWYQQEPGQSPKLLVSFASTRESGVPDRFTGSGSGTDFTLTISGVQAEDLAVYYCQQHYSIPLTFGAGTKLELK | binding result | binds |
| SC16.49 (antibody, V domains shown, murine mAb; variable regions only) VH: QVQLQQSGPELVKPGTLVKISCKASGYTFTSYDINWVKQRPGQGLEWIGWIYPGDGNTKYSEKFKGKATLTADKSSSTAYMQLTSLTSENSAVYFCARDYDYPFAYWGQGTLVTVSA VL: DIKMTQSPSSMYASLGERVTITCKASQDINSYLSWFQQKPGKSPKTLIYRANRLVDGVPSRFSGSGSGQDYSLTITSLEYEDMGIYYCLQYDEFPLTFGAGTKLELK | binding result | binds |
